assay: Wet particle size distribution by laser diffraction (Malvern Mastersizer 3000); assay type: physicochemical; conditions: dispersant heptane with 0.2% Span 80
RECORDED_ENDPOINT: Wet particle size distribution D90 (μm)
Quick note: give the figure in μm, leave out the unit.

Task: // lookup Wet particle size distribution D90 for CC(C)(C=C(C#N)C(=O)N1CCCC(n2nc(-c3ccc(Oc4ccccc4)cc3F)c3c(N)ncnc32)C1)N1CCN(C2COC2)CC1 (stereo not shown) [Comparator 1]
Result: 694

Task: Field request: Wet particle size distribution D90 | item: CC(C)(C=C(C#N)C(=O)N1CCCC(n2nc(-c3ccc(Oc4ccccc4)cc3F)c3c(N)ncnc32)C1)N1CCN(C2COC2)CC1 (stereo not shown) [Comparator 2]
Result: 575

Task: Returns the measured Wet particle size distribution D90 for the input molecule. Input: CC(C)(C=C(C#N)C(=O)N1CCCC(n2nc(-c3ccc(Oc4ccccc4)cc3F)c3c(N)ncnc32)C1)N1CCN(C2COC2)CC1 (stereo not shown) [Compound (I) prepared by a spray drying process described he]
Result: 28.4
